- TESTED TARGET: Fibroblast growth factor 2 (Homo sapiens)
- EXPERIMENT NOTES: FGF2 binders on small-molecule microarrays, primary screen, biochemical, small-molecule microarray, 635/667 nm fluorescence (AID 1133)
- ASSAY CONDITIONS: small-molecule microarray binding, FGF2, fluorescence 635/667; higher = more signal
RECORDED METRIC: composite z-score

**Q:** Given the entry CN1C(=O)C2C=CC(C(O)c3cccs3)N(N(c3ccccc3)c3ccccc3)C2C1=O (stereo not drawn) , report its measured composite z-score.
**A:** -0.469

**Q:** `C=C(COC)C(=O)CC[C@@H](OC(=O)c1ccccc1-c1ccccc1C(=O)O)c1ccccc1OCCO` , same question.
**A:** 1.64

**Q:** `[N-]=[N+]=NCc1ccccc1[C@H]1OC(c2ccc(OCCCO)cc2)=N[C@@]1(CCS(=O)(=O)c1ccccc1)C(=O)O` , same question.
**A:** -0.119

###

- TESTED TARGET: Streptavidin (Streptomyces avidinii)
- EXPERIMENT NOTES: streptavidin binders on small-molecule microarray, primary screen, artefact control for SMM compound annotation, biophysical, 635/667 nm fluorescence (AID 1147);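 note: signal reflects streptavidin binding to arrayed compounds as a control protein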
- ASSAY CONDITIONS: streptavidin binding, higher = more signal
Label rule, in plain words: composite z-score of 0.6 and up is Yes, under 0.6 is No.

CCOC(=O)C[C@H]1[C@H](OC(=O)c2cc3ccccc3oc2=O)[C@@H](NC(=O)Cc2ccc(OC)cc2)c2cc(OCCCO)ccc2N1C(=O)Cc1ccc(OC)cc1 No
C=CCN1C(=O)[C@]2(O[C@H](CCO)[C@@H]([Si](C)(C)c3ccc(OC)cc3)[C@@H]2C)c2cc(N3C(=O)c4ccccc4Oc4ccccc43)ccc21 Yes
O=C1O[C@@H](c2ccccc2)[C@@H](c2ccccc2)N2[C@@H](c3ccc(OCCO)cc3)[C@]3(C(=O)Nc4ccc(C#CC5=CCCCC5)cc43)[C@@H](C(=O)Nc3nc4ccccc4s3)[C@H]12 No
C=CC[C@H](O)c1ccc(O)c2ccccc12 Yes

**Q:** Is reported composite z-score greater than or equal to 0.6 here: `CC(C)(C)OC(=O)CC[C@]1(C(=O)N2CCOCC2)COC(c2ccc(OCCCO)cc2)=N1`
**A:** No

###

- EXPERIMENT NOTES: PSAC antagonists in infected red cells, primary screen, cell-based, P. falciparum Indochina, OD700, 18 h (AID 1157)
- ASSAY CONDITIONS: P. falciparum Indochina infected erythrocytes, osmotic lysis OD700, 18 h; higher = more signal, called active from +8 up or from −8 down
Label rule, in plain words: z-score of 0.9 and up is yes (1), under 0.9 is no (0).

C=CCNC(=O)[C@@H]1[C@H]2C(=O)O[C@H](c3ccccc3)[C@H](c3ccccc3)N2[C@H](c2ccc(O)cc2)[C@@]12C(=O)N(C(=O)OCCOC)c1ccc(C#CCC(C(=O)OC)C(=O)OC)cc12 no (0)
COCCCNC(=O)[C@@]1(Cc2ccccc2I)c2ccccc2C(=O)N(Cc2ccccc2C(F)(F)F)[C@H]1c1ccc(CO)cc1 no (0)
CCCCC(=C=CC[C@H](O)c1ccccc1OCCO)CCO no (0)

**Q:** Is reported z-score greater than or equal to 0.9 here: `C=C(COC)/C(=C/C[C@@H](OC(C)=O)c1cccc(OCCO)c1)c1cnc2ccccc2c1`
**A:** yes (1)

**Q:** `COc1cc2c(cc1OC)CN(C(=O)[C@@H]1[C@H]3C(=O)O[C@H](c4ccccc4)[C@H](c4ccccc4)N3[C@H](c3ccc(O)cc3)[C@@]13C(=O)Nc1ccc(C#CC4=CCCCC4)cc13)CC2` , same question.
**A:** yes (1)
